Source of measurements: patent US8916526B2

Target: Escherichia coli Topoisomerase IV (Escherichia coli, UniProt P0AFI2+P20083)
Sequence (P20083 whole entry): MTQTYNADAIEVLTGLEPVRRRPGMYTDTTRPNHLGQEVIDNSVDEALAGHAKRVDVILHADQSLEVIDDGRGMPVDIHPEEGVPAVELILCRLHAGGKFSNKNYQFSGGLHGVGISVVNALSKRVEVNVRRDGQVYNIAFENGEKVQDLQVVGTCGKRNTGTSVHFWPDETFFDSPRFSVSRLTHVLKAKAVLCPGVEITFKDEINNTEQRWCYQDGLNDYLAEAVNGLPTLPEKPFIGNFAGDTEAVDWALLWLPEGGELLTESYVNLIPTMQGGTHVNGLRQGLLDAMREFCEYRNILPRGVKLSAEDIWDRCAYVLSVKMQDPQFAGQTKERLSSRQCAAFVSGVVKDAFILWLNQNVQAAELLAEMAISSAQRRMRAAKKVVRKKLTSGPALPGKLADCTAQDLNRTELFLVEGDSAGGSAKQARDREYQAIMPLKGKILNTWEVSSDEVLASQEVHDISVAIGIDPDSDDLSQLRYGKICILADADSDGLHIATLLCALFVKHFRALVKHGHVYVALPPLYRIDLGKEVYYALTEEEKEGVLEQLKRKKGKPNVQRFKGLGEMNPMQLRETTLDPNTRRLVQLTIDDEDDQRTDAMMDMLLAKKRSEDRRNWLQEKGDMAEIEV
Sequence (P0AFI2 whole entry): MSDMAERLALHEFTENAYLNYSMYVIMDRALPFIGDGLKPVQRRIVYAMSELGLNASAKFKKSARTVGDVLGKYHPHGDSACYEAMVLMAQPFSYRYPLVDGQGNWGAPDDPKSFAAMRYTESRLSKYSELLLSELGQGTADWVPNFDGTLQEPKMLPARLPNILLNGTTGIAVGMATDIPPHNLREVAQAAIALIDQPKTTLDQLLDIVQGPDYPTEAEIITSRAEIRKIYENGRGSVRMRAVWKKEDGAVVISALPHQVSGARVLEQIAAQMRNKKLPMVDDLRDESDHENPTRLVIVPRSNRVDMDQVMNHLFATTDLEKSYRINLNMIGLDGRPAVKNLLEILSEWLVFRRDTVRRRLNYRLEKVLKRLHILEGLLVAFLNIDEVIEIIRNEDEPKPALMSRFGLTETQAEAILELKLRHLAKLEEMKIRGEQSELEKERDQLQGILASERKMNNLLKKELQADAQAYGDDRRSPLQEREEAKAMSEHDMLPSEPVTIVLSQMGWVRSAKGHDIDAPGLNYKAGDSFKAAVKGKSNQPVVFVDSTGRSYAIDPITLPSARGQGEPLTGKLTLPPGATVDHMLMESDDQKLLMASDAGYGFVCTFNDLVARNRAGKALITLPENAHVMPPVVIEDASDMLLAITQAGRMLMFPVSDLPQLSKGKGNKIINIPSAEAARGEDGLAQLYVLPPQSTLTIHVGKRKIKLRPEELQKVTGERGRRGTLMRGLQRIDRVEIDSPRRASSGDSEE
Assay: Topoisomerase IV inhibition (decatenation kit), Exp. Ex. 2-3
Details: decatenation of kDNA, 37° C., 30 minutes; read-out: IC50 (E. coli topoisomerase IV inhibitions)
READOUT: IC50 (µM)

| COMPOUND | UNIT TEXT | REPORTED MEASUREMENT |
| --- | --- | --- |
| CCOc1ccc(C(=O)OC[C@H]2O[C@@H](Oc3c(-c4ccc(O)c(O)c4)oc4cc(O)cc(O)c4c3=O)[C@H](OC(=O)c3ccc(OCC)cc3)[C@@H](O)[C@H]2O)cc1 [Compound 14a] | µM | 7.33 |
| Cc1ccc(CCC(=O)OCC2OC(Oc3c(-c4ccc(O)c(O)c4)oc4cc(O)cc(O)c4c3=O)C(OC(=O)CCc3ccc(C)cc3)C(O)C2O)cc1 (stereo not shown) [Compound 14l] | µM | 7.99 |
| O=C(CCc1ccc(F)cc1)OC[C@H]1O[C@@H](Oc2c(-c3ccc(O)c(O)c3)oc3cc(O)cc(O)c3c2=O)[C@H](OC(=O)CCc2ccc(F)cc2)[C@@H](O)[C@H]1O [Compound 14i] | µM | 7.16 |
| O=c1c(O)c(-c2ccc(O)c(O)c2)oc2cc(O)cc(O)c12 [Quercetin, quercetin, reference compound] | µM | 4.42 |

----------
READOUT: melting point

| MOLECULE | READOUT | REPORTED MEASUREMENT |
| --- | --- | --- |
| Cc1ccc(CC(=O)OC[C@H]2O[C@@H](Oc3c(-c4ccc(O)c(O)c4)oc4cc(O)cc(O)c4c3=O)[C@H](OC(=O)Cc3ccc(C)cc3)[C@@H](O)[C@H]2O)cc1 [Compound 14d] | melting point | 125 to 127 °C |
| CCCc1ccc(C(=O)OC[C@H]2O[C@@H](Oc3c(-c4ccc(O)c(O)c4)oc4cc(O)cc(O)c4c3=O)[C@H](OC(=O)c3ccc(CCC)cc3)[C@@H](O)[C@H]2O)cc1 [Compound 14b] | melting point | 150 to 151 °C |
| Cc1ccc(CCC(=O)c2cc(O)c3c(=O)c(C(=O)CCc4ccc(C)cc4)c(-c4ccc(O)c(O)c4)oc3c2)cc1 | melting point | 105 to 107 °C |
| O=C(CCc1ccc(F)cc1)c1cc(O)c2c(=O)c(C(=O)CCc3ccc(F)cc3)c(-c3ccc(O)c(O)c3)oc2c1 | melting point | 119 to 121 °C |
| O=C(CCc1ccc(O)cc1)OC[C@H]1O[C@@H](Oc2c(-c3ccc(O)c(O)c3)oc3cc(O)cc(O)c3c2=O)[C@H](OC(=O)CCc2ccc(O)cc2)[C@@H](O)[C@H]1O [Compound 14f] | melting point | 149 to 150 °C |
| CCOc1ccc(C(=O)OC[C@H]2O[C@@H](Oc3c(-c4ccc(O)c(O)c4)oc4cc(O)cc(O)c4c3=O)[C@H](OC(=O)c3ccc(OCC)cc3)[C@@H](O)[C@H]2O)cc1 [Compound 14a] | melting point | 108 to 110 °C |
| CCOc1ccc(C(=O)O[C@H]2[C@H](Oc3c(-c4ccc(O)c(O)c4)oc4cc(O)cc(O)c4c3=O)O[C@H](CO)[C@@H](O)[C@@H]2OC(=O)c2ccc(OCC)cc2)cc1 [Compound 15e] | melting point | 122 to 123 °C |
| CC(=O)OC[C@H]1O[C@@H](Oc2c(-c3ccc(O)c(O)c3)oc3cc(O)cc(O)c3c2=O)[C@H](OC(C)=O)[C@@H](OC(C)=O)[C@@H]1OC(C)=O | melting point | 109 to 110 °C |
| O=c1c([C@@H]2O[C@H](CO)[C@H](O)[C@H](O)[C@H]2O)c(-c2ccc(O)c(O)c2)oc2cc([C@@H]3O[C@H](CO)[C@H](O)[C@H](O)[C@H]3O)cc(O)c12 | melting point | 215 to 217 °C |
| CCCc1ccc(C(=O)O[C@H]2[C@H](Oc3c(-c4ccc(O)c(O)c4)oc4cc(O)cc(O)c4c3=O)O[C@H](CO)[C@@H](O)[C@@H]2OC(=O)c2ccc(CCC)cc2)cc1 [Compound 15f] | melting point | 152 to 153 °C |
